- assay notes: in vitro
- study conditions: human
# if measured CC50 at 48 h < 60 µM: satisfied  # else: not satisfied

> print(dat)
                                    molecule          label
 1  CCCCCCCCCCCCCCCCCCOC[C@H](COP(=O)(O)OC[C@H]1O[C@@](C#N)(c2ccc3c(N)ncnn23)[C@H](O)[C@@H]1O)OCc1ccc(C#N)cc1      satisfied
 2  CCCCCCCCCCCCCCOC[C@H](COP(=O)(O)OC[C@H]1O[C@@](C#N)(c2ccc3c(N)ncnn23)[C@H](O)[C@@H]1O)OCc1ccccc1 [Compound 12a]  not satisfied
 3  CCCCCCCCCCCCCCCCCCOC[C@H](COP(=O)(O)OC[C@H]1O[C@@](C#N)(c2ccc3c(N)ncnn23)[C@H](O)[C@@H]1O)OCc1ccc(OC)c(F)c1  not satisfied
 4  CCCCCCCCCCCCCCCCOC[C@H](COP(=O)(O)OC[C@H]1O[C@@](C#N)(c2ccc3c(N)ncnn23)[C@H](O)[C@@H]1O)OCc1ccccc1 [Compound 11a]  not satisfied
 5  CCCCCCCCCCCCCCCCCCOC[C@H](COP(=O)(O)OC[C@H]1O[C@@](C#N)(c2ccc3c(N)ncnn23)[C@H](O)[C@@H]1O)OCc1cccc(F)c1  not satisfied
 6  CCCCCCCCCCCCCCCCCCOCC(COP(=O)(O)OC[C@H]1O[C@@](C#N)(c2ccc3c(N)ncnn23)[C@H](O)[C@@H]1O)OCc1ccccc1 (some centres unmarked)  not satisfied
 7  CCCCCCCCCCCCCCCCCCOC[C@H](COP(=O)(O)OC[C@H]1O[C@@](C#N)(c2ccc3c(N)ncnn23)[C@H](O)[C@@H]1O)OCCCCCCCC  not satisfied
 8  CCCCCCCCCCCCCCCCCCOC[C@H](COP(=O)(O)OC[C@H]1O[C@@](C#N)(c2ccc3c(N)ncnn23)[C@H](O)[C@@H]1O)OCc1ccccc1C#N  not satisfied
 9  CCCCCCCCCCCCCCCCCCOC[C@H](COP(=O)(O)OC[C@H]1O[C@@](C#N)(c2ccc3c(N)ncnn23)[C@H](O)[C@@H]1O)OCc1cccc(C#N)c1      satisfied
10  CCCCCCCCCCCCCCCCCCOC[C@H](COP(=O)(O)OC[C@H]1O[C@@](C#N)(c2ccc3c(N)ncnn23)[C@H](O)[C@@H]1O)OCCC1CCCCC1  not satisfied

* * *

- Test system: SARS-CoV-2 WA1 (USA-WA1/2020)
- assay notes: Antiviral immunofluorescence assay, SARS-CoV-2 WA1 in Calu-3 cells
- Assay type: cell-based
- study conditions: WA1, Calu-3 cells, immunofluorescence, 44 hpi, mean ± SD; read-out: EC50
measured endpoint: EC50 (nM)

> print(dat)
                               entry.smiles  quantitative.result
1  CCCCCCCCCCCCCCCCCCOC[C@H](COP(=O)(O)OC[C@H]1O[C@@](C#N)(c2ccc3c(N)ncnn23)[C@H](O)[C@@H]1O)OCc1ccccc1                  136

* * *

- Test system: Calu-3 cells
- study conditions: human, 44 h
measured endpoint: CC50 (µM)

> print(dat)
                               entry.smiles   test.target  units.symbol  quantitative.result
1  CCCCCCCCCCCCCCCCCCOC[C@H](COP(=O)(O)OC[C@H]1O[C@@](C#N)(c2ccc3c(N)ncnn23)[C@H](O)[C@@H]1O)OCc1ccccc1  Calu-3 cells            µM                 58.3

* * *

- System: SARS-CoV-2 (WA-1)
- assay notes: Antiviral immunofluorescence assay, SARS-CoV-2 WA1 in Huh7.5 cells
- Assay type: cell-based
- study conditions: Severe acute respiratory syndrome coronavirus 2; WA-1, Huh7.5 cells, immunofluorescence, 48 hpi; read-out: EC50
Parameter EC50: see the listing below.
measured endpoint: EC50

> print(dat)
                               entry.smiles  measured.endpoint    result
1  CCCCCCCCCCCCCCCCCCOC[C@H](COP(=O)(O)OC[C@H]1O[C@@](C#N)(c2ccc3c(N)ncnn23)[C@H](O)[C@@H]1O)OCc1cccc(F)c1               EC50  0.191 µM
2  CCCCCCCCCCCCCCCCCCOC[C@H](COP(=O)(O)OC[C@H]1O[C@@](C#N)(c2ccc3c(N)ncnn23)[C@H](O)[C@@H]1O)OCc1ccc(C#N)cc1               EC50  0.024 µM
3  CCCCCCCCCCCCCCCCCCOC[C@H](COP(=O)(O)OC[C@H]1O[C@@](C#N)(c2ccc3c(N)ncnn23)[C@H](O)[C@@H]1O)OCc1ccccc1               EC50   0.14 µM
4  CCCCCCCCCCCCCCCCCCOC[C@H](COP(=O)(O)OC[C@H]1O[C@@](C#N)(c2ccc3c(N)ncnn23)[C@H](O)[C@@H]1O)OCc1cccc(C#N)c1               EC50  0.024 µM
5  CCCCCCCCCCCCCCCCCCOC[C@H](COP(=O)(O)OC[C@H]1O[C@@](C#N)(c2ccc3c(N)ncnn23)[C@H](O)[C@@H]1O)OCCC1CCCCC1               EC50  0.092 µM

* * *

- System: SARS-CoV-2 (WA-1)
- assay notes: Antiviral immunofluorescence assay, SARS-CoV-2 WA1 in Huh7.5 cells
- Assay type: cell-based
- study conditions: Severe acute respiratory syndrome coronavirus 2; WA-1, Huh7.5 cells, immunofluorescence, 48 hpi; read-out: EC90
measured endpoint: EC90 (µM)

> print(dat)
                                   compound  quantitative.result
1  CCCCCCCCCCCCCCCCCCOC[C@H](COP(=O)(O)OC[C@H]1O[C@@](C#N)(c2ccc3c(N)ncnn23)[C@H](O)[C@@H]1O)OCc1ccccc1C#N                0.281
2  CCCCCCCCCCCCCCCCOC[C@H](COP(=O)(O)OC[C@H]1O[C@@](C#N)(c2ccc3c(N)ncnn23)[C@H](O)[C@@H]1O)OCc1ccc(OC)c(F)c1 [Compound 11g]                0.103
3  CCCCCCCCCCCCCCCCCCOC[C@H](COP(=O)(O)OC[C@H]1O[C@@](C#N)(c2ccc3c(N)ncnn23)[C@H](O)[C@@H]1O)OCc1ccc(C#N)cc1                 0.07
4  CCCCCCCCCCCCCCCCCCOC[C@H](COP(=O)(O)OC[C@H]1O[C@@](C#N)(c2ccc3c(N)ncnn23)[C@H](O)[C@@H]1O)OCCC1CCCCC1                 1.31
5  CCCCCCCCCCCCCCCCCCOC[C@H](COP(=O)(O)OC[C@H]1O[C@@](C#N)(c2ccc3c(N)ncnn23)[C@H](O)[C@@H]1O)OCc1ccccc1                0.424

* * *

Parameter EC90: see the listing below.
- Test system: SARS-CoV-2 (WA-1)
- assay notes: Antiviral immunofluorescence assay, SARS-CoV-2 WA1 in Vero-TMPRSS2 cells
- Assay type: cell-based
- study conditions: Severe acute respiratory syndrome coronavirus 2; WA-1, Vero-TMPRSS2 cells, immunofluorescence, 38 hpi

compound	EC90, nM
CCCCCCCCCCCCCCCCCCOC[C@H](COP(=O)(O)OC[C@H]1O[C@@](C#N)(c2ccc3c(N)ncnn23)[C@H](O)[C@@H]1O)OCCCCCCCC [Compound 9h]	1790
CCCCCCCCCCCCCCCCCCOCC(COP(=O)(O)OC[C@H]1O[C@@](C#N)(c2ccc3c(N)ncnn23)[C@H](O)[C@@H]1O)OCc1ccccc1 (stereo partly shown) [Compound 9c]	613
CCCCCCCCCCCCCCCCCCOC[C@H](COP(=O)(O)OC[C@H]1O[C@@](C#N)(c2ccc3c(N)ncnn23)[C@H](O)[C@@H]1O)OCc1cccc(F)c1 [Compound 9d]	629
CCCCCCCCCCCCCCCCOC[C@H](COP(=O)(O)OC[C@H]1O[C@@](C#N)(c2ccc3c(N)ncnn23)[C@H](O)[C@@H]1O)OCc1ccc(OC)c(F)c1 [Compound 11g]	858

* * *

- Tested on: SARS-CoV-2 (WA-1)
- assay notes: Antiviral immunofluorescence assay, SARS-CoV-2 WA1 in Huh7.5 cells
- Format: cell-based
- study conditions: Severe acute respiratory syndrome coronavirus 2; WA-1, Huh7.5 cells, immunofluorescence, 48 hpi; read-out: EC90
# if measured EC90 < 300 nM: yes  # else: no

> print(dat)
                                   compound  label
1  CCCCCCCCCCCCCCCCCCOC[C@H](COP(=O)(O)OC[C@H]1O[C@@](C#N)(c2ccc3c(N)ncnn23)[C@H](O)[C@@H]1O)OCc1cccc(F)c1     no
2  CCCCCCCCCCCCCCCCCCOCC(COP(=O)(O)OC[C@H]1O[C@@](C#N)(c2ccc3c(N)ncnn23)[C@H](O)[C@@H]1O)OCc1ccccc1 (stereo partly drawn)     no
3  CCCCCCCCCCCCCCCCCCOC[C@H](COP(=O)(O)OC[C@H]1O[C@@](C#N)(c2ccc3c(N)ncnn23)[C@H](O)[C@@H]1O)OCc1ccc(OC)c(F)c1    yes
4  CCCCCCCCCCCCCCCCCCOC[C@H](COP(=O)(O)OC[C@H]1O[C@@](C#N)(c2ccc3c(N)ncnn23)[C@H](O)[C@@H]1O)OCCCCCCCC     no
5  CCCCCCCCCCCCCCCCCCOC[C@H](COP(=O)(O)OC[C@H]1O[C@@](C#N)(c2ccc3c(N)ncnn23)[C@H](O)[C@@H]1O)OCc1cccc(C#N)c1    yes
6  CCCCCCCCCCCCCCCCOC[C@H](COP(=O)(O)OC[C@H]1O[C@@](C#N)(c2ccc3c(N)ncnn23)[C@H](O)[C@@H]1O)OCc1ccccc1 [Compound 11a]    yes

Source of measurements: paper PMC10108740
